B1: Histone-lysine N-methyltransferase SETD2, residues 2382 to 2430; numbered along this chain, Q9BYW2 (parent)
chain: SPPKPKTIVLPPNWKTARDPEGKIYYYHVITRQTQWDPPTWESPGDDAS

- Variants of: B1
- PROTOCOL: abundance fitness (aPCA) (normalised: wild type 0, dead -1); higher = more abundant; growth selection in yeast, the domain comes from the species named
- RUN PARAMETERS: Homo sapiens
Mark yes (1) for reported abundance fitness of -0.1 or greater; mark no (0) for anything smaller.

-- ask # bool: abundance fitness of A48P >= -0.1
-- reply yes (1)

-- ask Confirm if abundance fitness reported for the variant A48R is -0.1 or above.
-- reply yes (1)

-- ask Has Y26S a recorded abundance fitness greater than or equal to -0.1?
-- reply no (0)

-- ask Is abundance fitness at least -0.1? Consider K4S
-- reply yes (1)

-- ask Is the recorded value of abundance fitness equal to or greater than -0.1 for this variant? P20H
-- reply no (0)

-- ask Given P20E , state whether its abundance fitness is at least -0.1.
-- reply yes (1)

-- ask Does Y27Q have a reported abundance fitness of at least -0.1?
-- reply no (0)

-- ask Confirm if abundance fitness reported for the variant P3E is -0.1 or above.
-- reply yes (1)

-- ask hey, is abundance fitness for this one >= -0.1? K6P
-- reply no (0)

-- ask Would you say S49F shows abundance fitness at minimum -0.1?
-- reply no (0)
